- experiment_summary: Cell Viability qHTS for small molecule stabilizers of the endoplasmic reticulum resident proteome (AID 1508629);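 further: human SH-SY5Y neuroblastoma cells carrying the GLuc-SERCaMP reporter; compound exposure about 46 h in total before the viability read; on the % scale 0 is the no-effect control and ±100 the full control effect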
- measurement_parameters: cell viability counter-screen, 100 nM thapsigargin for final 4 h
Inconclusive results are not listed.
metric_name: max response (%)
Numbers only; they are read as %.

[
  {
    "compound": "CN(C)c1ccc(N=NS(=O)(=O)O)cc1",
    "max response (%)": 4.58
  },
  {
    "compound": "Oc1ccccc1O",
    "max response (%)": -15.9
  },
  {
    "compound": "CCCN(CC1CC1)c1nc(C)nc(Nc2c(Cl)cc(Cl)cc2Cl)c1Cl",
    "max response (%)": 17.8
  },
  {
    "compound": "CC1CN(S(=O)(=O)c2cccc3cnccc23)CCN1 (stereo not drawn)",
    "max response (%)": 32.3
  },
  {
    "compound": "CCCCCCCC/C=C\\CCCCCCCC(=O)NCCO",
    "max response (%)": 21.6
  },
  {
    "compound": "O=C(Nc1ccccc1)c1cc([N+](=O)[O-])ccc1Cl",
    "max response (%)": -26.2
  },
  {
    "compound": "O=C(c1ccc(Cl)cc1)N1CCN(c2ccc([N+](=O)[O-])c3ncccc23)CC1",
    "max response (%)": 3.83
  }
]

Turning now to a further record.
Suppose we examine the compound "Fc1ccc(C(OCCCc2cnc[nH]2)c2ccc(F)cc2)cc1" ; what max response value has been reported?
-7.37

###

- Test system: HaCat
- experiment_summary: Cytotoxic Profiling of Annotated Libraries Using Quantitative High-Throughput Screening (AID 1296008); further: on the % scale 0 is the no-effect control and ±100 the full control effect; nearly all actives have a fitted effect of over 60% in size
- measurement_parameters: Five cell lines viability, CellTiter-Glo ATP luminescence, 48-72 h; active compounds read low
Inconclusive results are not listed.
metric_name: max response (%)
Numbers only; they are read as %.

[
  {
    "molecule": "CCCCCCCCCCCCCCCC(=O)OC(C)C",
    "test_target": "HaCat",
    "metric_name": "max response",
    "numeric_result": -20.5
  },
  {
    "molecule": "CN1[C@@H]2CC[C@H]1CC(OC(=O)C(CO)c1ccccc1)C2 (stereo partly specified)",
    "test_target": "HaCat",
    "metric_name": "max response",
    "numeric_result": -9.85
  },
  {
    "molecule": "C/C(=N\\O)c1ccc(OCC(=O)N2CCCCC2)cc1",
    "test_target": "HaCat",
    "metric_name": "max response",
    "numeric_result": 2.33
  }
]

Suppose we examine the molecule "Nc1cc(-c2ccncc2)c[nH]c1=O" ; what max response value has been reported?
3.01

Same lookup for CN(C)[C@@H]1C(=O)C(C(=O)NCN2CCCC2)=C(O)[C@@]2(O)C(=O)C3=C(O)c4c(O)cccc4[C@@](C)(O)C3C[C@@H]12 (stereo partly specified) , please.
-12.7

Same lookup for "CCNc1nc2c(ncn2[C@H]2C[C@H](O)[C@@H](CO)O2)c(=O)[nH]1" , please.
-28.7

Same lookup for CCC1C(=O)OCC1Cc1cncn1C (stereo unspecified) , please.
0.604

Same lookup for CC(C(=O)O)c1ccc2c(c1)[nH]c1ccc(Cl)cc12 (stereo unspecified) , please.
1.94

Same lookup for CC(=O)SCC(CC(=O)c1ccc(C)cc1)C(=O)O (stereo unspecified) , please.
-9.14

Same lookup for "Cc1ccc(O)c(-n2nc3ccccc3n2)c1" , please.
-23.9

Same lookup for "Nc1ccc([N+](=O)[O-])cc1O" , please.
4.66

###

- experiment_summary: qHTS assay for small molecule antagonists of the retinoid-related orphan receptor gamma (ROR-gamma) signaling pathway - cell viability counter screen (AID 720652);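 further: compound exposure lasted 16 hr before ATP read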
- measurement_parameters: RORgamma reporter cell line viability counter screen; series mostly up to 92.2 µM
Inconclusive results are not listed. Activity calls are given as the source filed them. Calls follow the shape of the dose curve; as a rule, active = well fitted cell-killing curve with a large enough effect in the repeat runs; inconclusive = weak or mixed curves, or effect the other way; inactive = flat fitted curve, though single readings scatter.
Valid outcomes are listed here; reply with one: TRUE for active, FALSE for inactive

As a guide, the following entries are already answered.
[
  {
    "smiles_data": "Nc1ccc(O)c(C(=O)O)c1",
    "group_label": "FALSE"
  },
  {
    "smiles_data": "C#C[C@]1(O)CC[C@H]2[C@@H]3CCc4cc(O)ccc4[C@H]3CC[C@@]21C",
    "group_label": "FALSE"
  }
]

Call for entry "CCCOC(=O)c1ccc(O)cc1" :
FALSE

Same lookup for "N=C1N=C(N)c2cc3ccccc3cc21" , please.
TRUE

Same lookup for "S=c1[nH]c2ccccc2s1" , please.
FALSE

###

- System: C2A
- experiment_summary: qHTS profiling for inhibitors of Plasmodium falciparum proliferation (AID 504749); further: nearly all actives have a fitted effect of over 60% in size
- measurement_parameters: P. falciparum in erythrocytes, SYBR Green DNA, 72 h; series mostly up to 28.7 µM
Inconclusive results are not listed. Activity calls are given as the source filed them. The call rests on the fitted dose curve; in most records, active means well fitted inhibition curve with a large enough effect; inconclusive means small, poorly fitted or top-dose-only effect; inactive means flat fitted curve, though single readings scatter. Where a SMILES comes first, the peptide text is derived from it. [ ]: non-standard residue; d: D form. pGlu = O=C1CC[C@@H](C(=O)O)N1; Thz = O=C(O)[C@@H]1CSCN1
Valid outcomes are listed here; reply with one: active, inactive

As a guide, the following entries are already answered.
[
  {
    "compound": "COc1cc(CNC(=O)CCCC/C=C/C(C)C)ccc1O",
    "test_target": "C2A",
    "group_label": "inactive"
  },
  {
    "compound": "Cc1cc(O)c2ccccc2c1O",
    "test_target": "C2A",
    "group_label": "inactive"
  },
  {
    "compound": "CN1[C@@H]2CC[C@H]1CC(OC(c1ccccc1)c1ccccc1)C2 (stereo not given in full)",
    "test_target": "C2A",
    "group_label": "inactive"
  },
  {
    "compound": "CCOc1ccc2nc(S(N)(=O)=O)sc2c1",
    "test_target": "C2A",
    "group_label": "inactive"
  },
  {
    "compound": "CC(N)C(=O)OC(C)(C)Cc1ccc(Cl)cc1 (stereo not given)",
    "test_target": "C2A",
    "group_label": "inactive"
  },
  {
    "compound": "CC1(C)S[C@@H]2[C@H](NC(=O)[C@H](NC(=O)N3CCN(S(C)(=O)=O)C3=O)c3ccccc3)C(=O)N2[C@H]1C(=O)O",
    "test_target": "C2A",
    "group_label": "inactive"
  },
  {
    "compound": "O=C(/C=C/c1ccccc1)NCCO",
    "test_target": "C2A",
    "group_label": "inactive"
  },
  {
    "compound": "COc1cc(/C=C/C(=O)CC(=O)/C=C/c2ccc(O)c(OC)c2)ccc1O",
    "test_target": "C2A",
    "group_label": "active"
  },
  {
    "compound": "[O-][n+]1ccccc1SSc1cccc[n+]1[O-]",
    "test_target": "C2A",
    "group_label": "active"
  },
  {
    "compound": "CCCCC[C@H](O)/C=C/[C@@H]1[C@@H](C/C=C\\CCCC(=O)O)[C@@H](O)C[C@H]1O",
    "test_target": "C2A",
    "group_label": "inactive"
  }
]

Call for entry "C=C(Nc1ccc(OCC)cc1)Nc1ccc(OCC)cc1" :
inactive

Same lookup for O=C1CC[C@@H](C(=O)N2CSC[C@H]2C(=O)O)N1 ([pGlu]-[Thz]-OH) , please.
inactive

Same lookup for "Oc1c(Br)cc(Br)c2cccnc12" , please.
inactive

###

- test_target: Atrial natriuretic peptide receptor 1 (Homo sapiens) (UniProt P16066)
- Sequence (P16066 whole entry, looked up): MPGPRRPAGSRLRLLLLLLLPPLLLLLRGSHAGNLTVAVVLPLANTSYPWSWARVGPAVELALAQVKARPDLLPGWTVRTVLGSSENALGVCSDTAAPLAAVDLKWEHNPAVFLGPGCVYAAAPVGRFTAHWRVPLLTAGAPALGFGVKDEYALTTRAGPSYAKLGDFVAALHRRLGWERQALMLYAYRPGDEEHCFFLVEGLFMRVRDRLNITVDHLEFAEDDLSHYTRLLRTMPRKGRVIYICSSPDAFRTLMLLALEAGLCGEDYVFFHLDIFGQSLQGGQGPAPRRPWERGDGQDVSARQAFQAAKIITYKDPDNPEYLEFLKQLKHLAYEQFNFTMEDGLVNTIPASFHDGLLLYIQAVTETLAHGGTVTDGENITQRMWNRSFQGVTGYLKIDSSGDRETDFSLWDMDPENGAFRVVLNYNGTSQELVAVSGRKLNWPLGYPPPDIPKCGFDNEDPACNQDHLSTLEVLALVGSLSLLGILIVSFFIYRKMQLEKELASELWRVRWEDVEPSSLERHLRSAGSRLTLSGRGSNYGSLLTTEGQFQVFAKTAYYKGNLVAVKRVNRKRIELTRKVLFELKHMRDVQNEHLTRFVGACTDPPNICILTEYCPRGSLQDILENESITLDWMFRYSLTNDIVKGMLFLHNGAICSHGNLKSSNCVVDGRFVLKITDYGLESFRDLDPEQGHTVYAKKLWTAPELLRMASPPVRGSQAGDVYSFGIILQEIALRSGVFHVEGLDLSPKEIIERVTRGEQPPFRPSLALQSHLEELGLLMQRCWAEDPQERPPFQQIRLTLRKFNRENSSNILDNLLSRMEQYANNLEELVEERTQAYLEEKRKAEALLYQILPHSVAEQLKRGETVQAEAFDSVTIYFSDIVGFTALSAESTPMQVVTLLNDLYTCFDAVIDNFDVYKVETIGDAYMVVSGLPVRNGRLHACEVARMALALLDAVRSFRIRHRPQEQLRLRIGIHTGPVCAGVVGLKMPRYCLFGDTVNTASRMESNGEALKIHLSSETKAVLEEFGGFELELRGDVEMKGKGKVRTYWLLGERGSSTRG
- experiment_summary: Natriuretic polypeptide receptor (hNpr1) antagonism - Pilot screen (AID 1347049);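 further: HEK293 cells with hNpr1 and GloSensor cGMP luciferase stimulated by 0.1 nM hNppA; agonist-evoked cGMP luminescence read 20 min after hNppA addition; on the % scale 0 is the no-effect control and ±100 the full control effect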
- measurement_parameters: hNpr1 cells, antagonist mode cGMP read-out; series mostly up to 57.5 µM
- Text: […] 7. […] GloSensor baseline pre-read luminescence measured using CCD-based camera (Viewlux). […] 10. […] GloSensor post-hNppA luminescence measured using CCD-based camera (Viewlux). […] 1. […] Cells counted with Invitrogen Countess (30,000,000 - 50,000,000 cells/flask). […]
Inconclusive results are not listed. Calls of active or inactive are those of the source. Calls follow the shape of the full dose curve.
metric_name: outcome

[
  {
    "molecule": "N=c1ccn2c(n1)O[C@H]1[C@H](O)[C@@H](CO)O[C@H]12",
    "test_target": "Atrial natriuretic peptide receptor 1 (Homo sapiens) (UniProt P16066)",
    "outcome": "inactive"
  },
  {
    "molecule": "CCN1/C(=C/C(C)=O)Sc2ccc(OC)cc21",
    "test_target": "Atrial natriuretic peptide receptor 1 (Homo sapiens) (UniProt P16066)",
    "outcome": "inactive"
  },
  {
    "molecule": "OC[C@H]1O[C@@H](n2cnc3c(Nc4ccccc4)ncnc32)[C@H](O)[C@@H]1O",
    "test_target": "Atrial natriuretic peptide receptor 1 (Homo sapiens) (UniProt P16066)",
    "outcome": "inactive"
  },
  {
    "molecule": "O=P(O)(O)C(Cl)(Cl)P(=O)(O)O",
    "test_target": "Atrial natriuretic peptide receptor 1 (Homo sapiens) (UniProt P16066)",
    "outcome": "inactive"
  },
  {
    "molecule": "O=c1[nH]c2cc([N+](=O)[O-])c([N+](=O)[O-])cc2[nH]c1=O",
    "test_target": "Atrial natriuretic peptide receptor 1 (Homo sapiens) (UniProt P16066)",
    "outcome": "inactive"
  },
  {
    "molecule": "Oc1cc2c(cc1O)CN(C(=S)NCCc1ccc(Cl)cc1)CCC2",
    "test_target": "Atrial natriuretic peptide receptor 1 (Homo sapiens) (UniProt P16066)",
    "outcome": "inactive"
  },
  {
    "molecule": "Cn1c(=O)c2[nH]c(-c3ccccc3)nc2n(C)c1=O",
    "test_target": "Atrial natriuretic peptide receptor 1 (Homo sapiens) (UniProt P16066)",
    "outcome": "inactive"
  },
  {
    "molecule": "CCCCCCCCCCCCCCCC(=O)OC(CC(=O)O)C[N+](C)(C)C (stereo unspecified)",
    "test_target": "Atrial natriuretic peptide receptor 1 (Homo sapiens) (UniProt P16066)",
    "outcome": "inactive"
  }
]

Lab note: need outcome with Atrial natriuretic peptide receptor 1 (Homo sapiens) (UniProt P16066) for entry "CCNC(=O)[C@H]1O[C@@H](n2cnc3c(N)nc(NCCc4ccc(CCC(=O)O)cc4)nc32)[C@H](O)[C@@H]1O" , please look it up.
inactive

Same lookup for "O=C(O)[C@@H]1C[C@@H](C(=O)O)N1" , please.
inactive

Same lookup for "COc1cc2c(CCNC(C)=O)c[nH]c2cc1Cl" , please.
inactive
